Reference source: paper PMC4476580

Assay: MTT cell proliferation cytotoxicity assay
Type: cell-based
Conditions: hamster; BHK-21 cells, MTT, 42 hours
Protocol: Cell-based assays were next performed to evaluate the biological activities of the selected compounds. The cytotoxicity of these compounds was first evaluated by using a MTT cell proliferation assay with a BHK-21 cell line (Table 1, fig 5), as we described previously. […] Cytotoxicity was measured using BHK-21 cells by a MTT cell proliferation assay using the 3-(4,5-dimethylthiazol-2-yl)-2,5-diphenyl tetrazolium bromide method (ATCC), as described previously.
Hi there, I'd appreciate the recorded log10 CC50 at 42 h for every entry that follows.
Response schema: value (number) is log10 of CC50 at 42 h in units of µM.

Solved entries (count: 5):
| molecule | reported.result |
| --- | --- |
| Ic1ccc2c(c1)N(c1ccccc1)c1cc(Nc3ccc4c(c3)N(c3ccccc3)c3cc(I)ccc3N4)ccc1N2 | 1.16 |
| O=C1c2cc([N+](=O)[O-])ccc2-c2ccc3c4ccc5c6c(ccc(c7ccc1c2c73)c64)C(=O)c1cc([N+](=O)[O-])ccc1-5 | 0.76 |
| COc1ccc2cc1Oc1ccc(cc1)CC1c3c(cc(OC)c4c3Oc3cc5c(cc3O4)CCNC5C2)CCN1C (centres unmarked) | 0.68 |
| O=c1c2ccccc2c2ccccc2c(=O)n1-c1cc2c3ccccc3ccc2c2ccccc12 | 2.28 |
| O=C1CN2CCN(CC2)CC(=O)Nc2ccc(cc2)S(=O)(=O)c2ccc(cc2)NC(=O)CN2CCN(CC2)CC(=O)Nc2ccc(cc2)S(=O)(=O)c2ccc(cc2)N1 | 2.56 |

Go through the items and report each one's log10 CC50 at 42 h.
1. O=C1c2ccccc2C(=O)c2c1ccc(N1C(=O)c3ccccc3C1=O)c2-c1c(N2C(=O)c3ccccc3C2=O)ccc2c1C(=O)c1ccccc1C2=O
2. CC1=C(Nc2c(C)cc(O)cc2O)C(=O)C=c2oc3c(c21)C(C)=C(Nc1c(C)cc(O)cc1O)C(=O)C=3

Output:
1. 2.19
2. 2.07

* * *

target: WNV MTase (West Nile virus, UniProt Q9Q6P4); construct: containing the N-terminal 300, 266, 265, and 272 amino acids of NS5 protein, respectively; made in house; experiment: biochemical; type: biochemical; details: IC50 N7 No CHAPS
Sequence (Q9Q6P4 2529-2794 limits assumed): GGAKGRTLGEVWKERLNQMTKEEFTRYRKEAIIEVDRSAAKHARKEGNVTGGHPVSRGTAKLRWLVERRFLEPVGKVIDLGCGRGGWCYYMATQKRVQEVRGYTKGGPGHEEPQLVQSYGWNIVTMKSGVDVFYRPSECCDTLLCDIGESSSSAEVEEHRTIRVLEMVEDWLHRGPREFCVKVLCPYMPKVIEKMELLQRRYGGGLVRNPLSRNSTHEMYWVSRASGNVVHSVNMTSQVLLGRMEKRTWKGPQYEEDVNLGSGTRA
measured.quantity: IC50 (µM)
One number for each entry, in µM.

Look up IC50 for the entries below, preserving their order.
1. COc1ccc2cc1Oc1ccc(cc1)CC1c3c(cc(OC)c4c3Oc3cc5c(cc3O4)CCNC5C2)CCN1C (stereo not drawn)
2. O=c1c2ccccc2c2ccccc2c(=O)n1-c1cc2c3ccccc3ccc2c2ccccc12

Output:
[25.9, 40]

* * *

target: WNV MTase (West Nile virus); construct: containing the N-terminal 300, 266, 265, and 272 amino acids of NS5 protein, respectively; made in house; assay: biochemical; type: biochemical; details: IC50 N7 No CHAPS
measured.quantity: pIC50
One number for each entry, as −log10 of the molar value.

Solved entries:
| molecular.string | measured.quantity | reported.result |
| --- | --- | --- |
| CN1CCN(c2ccc3[nH]c(-c4ccc5[nH]c(-c6ccc(O)cc6)nc5c4)nc3c2)CC1 | pIC50 | 4.52 |
| O=C1CN2CCN(CC2)CC(=O)Nc2ccc(cc2)S(=O)(=O)c2ccc(cc2)NC(=O)CN2CCN(CC2)CC(=O)Nc2ccc(cc2)S(=O)(=O)c2ccc(cc2)N1 | pIC50 | 4.41 |
| O=C1c2ccccc2C(=O)c2c1ccc(N1C(=O)c3ccccc3C1=O)c2-c1c(N2C(=O)c3ccccc3C2=O)ccc2c1C(=O)c1ccccc1C2=O | pIC50 | 4.80 |

Now for the molecule whose pIC50 we want.
pIC50 measured on CC1=C(Nc2c(C)cc(O)cc2O)C(=O)C=c2oc3c(c21)C(C)=C(Nc1c(C)cc(O)cc1O)C(=O)C=3 = 5.38
